Data origin, for the record: ChEMBL document CHEMBL1201862

Test system: NCI-H460
assay.notes: NCI tumour cell line growth inhibition, 48 h
Active and inactive are the calls of the source. Cut-off read from the data, not from the text of the source: active = GI50 up to about 1.1 µM and inactive = higher.
Outcome codes: active, inactive

- compound: "O=c1cc(N2CCCC2)[nH]c(=O)n1-c1cccc(Cl)c1"
  class: "inactive"
- compound: "CNCCCn1c2ccccc2c2c3c(c(-c4ccsc4)cc21)C(=O)NC3=O"
  class: "inactive"
- compound: "O=C1Nc2ccc(S(=O)(=O)NCCO)cc2/C1=C1/Nc2ccccc2C1=O"
  class: "inactive"
- compound: "CCOC(OCC)(OCC)C(Br)CC (stereo unspecified)"
  class: "inactive"
- compound: "C/C(=N\\NC(=O)c1ccccc1O)c1cccc(/C(C)=N/NC(=O)c2ccccc2O)n1"
  class: "inactive"
- compound: "O=C1CSC2(CC(/C=C/c3ccccc3Br)=NN2c2cccc(S(=O)(=O)O)c2)N1c1nc2ccccc2s1 (stereo unspecified)"
  class: "inactive"
- compound: "COC(=O)C1=C(C)N2[C@H](C(=O)O)CO[C@@]2(C)[C@H](C(=O)OC)[C@H]1c1cccc([N+](=O)[O-])c1"
  class: "inactive"
- compound: "CCc1nc(N)nc(N)c1-c1ccc([N+](C)(C)C)cc1"
  class: "inactive"
- compound: "CC1(C)[C@@H]2C[C@H]1C(Cc1cccc(C[C@H]3c4cc(-c5ccccn5)ncc4[C@H]4C[C@@H]3C4(C)C)c1)c1cc(-c3ccccn3)ncc12 (stereo partly specified)"
  class: "active"
- compound: "O=C(CCc1cc(O)cc(O)c1)NCCc1cc(O)cc(O)c1"
  class: "inactive"
- compound: "CCN(CC)C1CC(O[C@H]2C[C@](O)(C(=O)CO)Cc3c(O)c4c(c(O)c32)C(=O)c2c(OC)cccc2C4=O)OC(C)C1O (stereo partly specified)"
  class: "active"
- compound: "CC(=O)OC1C(C)OC(OC(=O)C2CCC3C(C2)OC2(CC(OC(=O)/C=C/c4ccccc4)C(C)CO2)C32CO2)C(OC2OC(C)C(O)C(OC(C)=O)C2O)C1O (stereo unspecified)"
  class: "active"
- compound: "N#Cc1ccccc1NC(=O)C(O)C(O)C(O)C(O)C=O (stereo unspecified)"
  class: "inactive"
- compound: "CC(=O)OC1COC(Nc2nc(N)n(C)c(=O)c2N=O)C(OC(C)=O)C1OC(C)=O (stereo unspecified)"
  class: "inactive"
- compound: "N#Cc1cc2c(cc1Cl)Sc1nnc(Nc3ccccc3)n1S2(=O)=O"
  class: "inactive"
- compound: "COc1ccc2c(c1)[nH]c1c(/C=C/c3ccccc3)nccc12"
  class: "inactive"
- compound: "OC1CCCC1C(O)(C(F)(F)F)C(F)(F)F (stereo unspecified)"
  class: "inactive"
- compound: "OCCCCCNc1c2ccccc2nc2ccccc12"
  class: "active"
- compound: "CCCCCCCC(=O)OCC1OC(n2cc(F)c(=O)[nH]c2=O)C(N)C(OC(=O)CCCCCCC)C1O (stereo unspecified)"
  class: "inactive"
- compound: "c1ccc(CNCCCCNCCCNCc2ccccc2)cc1"
  class: "inactive"
- compound: "CCCCOC(=O)NC(=O)c1cn(CCCOC(=O)CCCCCCCCC(=O)OCCCn2cc(C(=O)NC(=O)OCCCC)c(=O)n(C)c2=O)c(=O)n(C)c1=O"
  class: "inactive"
- compound: "O=C(CCN1CC2CCC(CC2)C1)c1cccs1"
  class: "inactive"
- compound: "COc1ccc(C(=O)c2c(C(C(=O)c3ccc(OC)cc3)C(=O)c3ccc(OC)cc3)n(C(=O)c3ccc(OC)cc3)c3ccccc23)cc1"
  class: "inactive"
- compound: "Cn1c(=O)c2c(nc3n(CCCCl)c(=O)ccn23)n(C)c1=O"
  class: "inactive"
- compound: "C[n+]1c2ccccc2c(C(=O)Nc2ccc(S(=O)(=O)N=C(N)N)cc2)c2ccccc21"
  class: "inactive"
- compound: "COc1ccc2c(CC(=O)O)cc(=O)oc2c1"
  class: "inactive"
- compound: "Cc1cc(NS(=O)(=O)c2ccc(NC(=O)c3cccn4c(=O)c5ccccc5nc34)cc2)no1"
  class: "inactive"
- compound: "CN(C)CCN1CCc2c([nH]c3ccccc23)C1c1cccnc1 (stereo unspecified)"
  class: "inactive"
- compound: "O=C1C2CCN(CC2)C1CN1CCOCC1 (stereo unspecified)"
  class: "inactive"
- compound: "Nc1ccccc1CCCC(=O)O"
  class: "inactive"
- compound: "COc1cc(O)c(C(=O)C2Cc3ccccc32)c(OC)c1 (stereo unspecified)"
  class: "inactive"
- compound: "CCc1cc(C)cc2[n+]1CC=C2C.[O-][Cl+3]([O-])([O-])[O-]"
  class: "inactive"
- compound: "c1cc(C[S+]2CCCC2)ccc1C[S+]1CCCC1"
  class: "inactive"
- compound: "Cc1n[nH]c(=S)n1/N=C/c1ccc(-c2ccc(Cl)cc2)o1"
  class: "inactive"
- compound: "O=C1C(c2c(O)[nH]c3ccccc23)=Nc2ccc(Br)cc21"
  class: "inactive"
- compound: "CCCCCCCCCCCCCCCCC1=CC(=O)C=C(OC)C1=O"
  class: "inactive"
- compound: "O=C(Cc1ccccc1)Nn1c(-c2ccccc2)nc2ccccc2c1=O"
  class: "inactive"
- compound: "CC(C)OP(=O)(OC(C)C)C(Nc1cccc(C(F)(F)F)c1)c1ccccc1 (stereo unspecified)"
  class: "inactive"
- compound: "CC(NC(=O)NC(C)(C)C)NC(=O)C(N)CC(=O)O (stereo unspecified)"
  class: "inactive"
- compound: "O=C1Cc2cc3ccccc3nc2-c2ccccc2N1"
  class: "inactive"
- compound: "CC(C)=CCC/C(C)=C/Cc1c(O)ccc2c1[nH]c1cc(O)c(C)cc12"
  class: "inactive"
